target: T1, PSMA Fab (biotinylated (site not stated)); test: clonal phage ELISA; biotinylated PSMA Fab on neutravidin plate pre-incubated with PSMA antigen as competitor; anti-M13 HRP detection;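 also: crude clonal phage supernatants briefly incubated on wells preloaded with PSMA antigen in blocking buffer, or buffer only as control, bound phage detected with HRP-conjugated anti-M13 antibody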
T1 construct: Biotinylated PSMA Fab captured on neutravidin plates in the phage ELISA; also called Anti-PSMA Fab; 006 PSMA Fab
Where no end group is shown, it is not given here.
Reported values of Phage binding ELISA signal, Anti-PSMA Fab in presence of PSMA for individual entries
MEASURE_NAME: Phage binding ELISA signal, Anti-PSMA Fab in presence of PSMA

ESKWCIPEWMCEQR [Phage-2448]; 0.0688
EEPWCIPSWMCALT (cysteine pairing not given here; also: displayed as fusion to phage pIII) [Phage-2449]; 0.0689
LHKLCTPTWMCEGF [Phage-2442]; 0.0712
